B1: IQUB (parent)
chain: EADYEDDSKIAFLMQLQDIQYLTE

- Variants of: B1
- Experimental protocol: protein stability index of a GFP-peptide fusion (GPS, HEK-293T) (PSI 1-6); higher = more stable;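 note: lentivirally expressed fusions sorted by FACS into six bins by GFP to DsRed ratio, PSI derived from sequencing read proportions per bin multiplied by bin number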
- Stated conditions: c terminus: a fixed tail appended
Endpoint label: protein stability index
Give your answer as a number; write no unit.

Recorded protein stability index, per entry:
Mutant designation	protein stability index
E1S	2.65
D6Q	2.57
Q15C	2.09
Q20N	3.22
A2N	3.41
Y21I	3.19
L22A	4.16
D7M	2.03
Y4T	3.66
A2L	3.46

**Query** Returns the measured protein stability index for the input variant. Input: S8M
**Result** 2.7

**Query** Returns the measured protein stability index for the input variant. Input: L16N
**Result** 4.33

**Query** Returns the measured protein stability index for the input variant. Input: D3S
**Result** 2.51

**Query** Returns the measured protein stability index for the input variant. Input: A2I
**Result** 2.99

**Query** Returns the measured protein stability index for the input variant. Input: Y4A
**Result** 3.76

**Query** Returns the measured protein stability index for the input variant. Input: Y4D
**Result** 4.24
